# measured.on: CFTR-mediated chloride transport (Homo sapiens)
# Sequence (P13569 whole entry, looked up): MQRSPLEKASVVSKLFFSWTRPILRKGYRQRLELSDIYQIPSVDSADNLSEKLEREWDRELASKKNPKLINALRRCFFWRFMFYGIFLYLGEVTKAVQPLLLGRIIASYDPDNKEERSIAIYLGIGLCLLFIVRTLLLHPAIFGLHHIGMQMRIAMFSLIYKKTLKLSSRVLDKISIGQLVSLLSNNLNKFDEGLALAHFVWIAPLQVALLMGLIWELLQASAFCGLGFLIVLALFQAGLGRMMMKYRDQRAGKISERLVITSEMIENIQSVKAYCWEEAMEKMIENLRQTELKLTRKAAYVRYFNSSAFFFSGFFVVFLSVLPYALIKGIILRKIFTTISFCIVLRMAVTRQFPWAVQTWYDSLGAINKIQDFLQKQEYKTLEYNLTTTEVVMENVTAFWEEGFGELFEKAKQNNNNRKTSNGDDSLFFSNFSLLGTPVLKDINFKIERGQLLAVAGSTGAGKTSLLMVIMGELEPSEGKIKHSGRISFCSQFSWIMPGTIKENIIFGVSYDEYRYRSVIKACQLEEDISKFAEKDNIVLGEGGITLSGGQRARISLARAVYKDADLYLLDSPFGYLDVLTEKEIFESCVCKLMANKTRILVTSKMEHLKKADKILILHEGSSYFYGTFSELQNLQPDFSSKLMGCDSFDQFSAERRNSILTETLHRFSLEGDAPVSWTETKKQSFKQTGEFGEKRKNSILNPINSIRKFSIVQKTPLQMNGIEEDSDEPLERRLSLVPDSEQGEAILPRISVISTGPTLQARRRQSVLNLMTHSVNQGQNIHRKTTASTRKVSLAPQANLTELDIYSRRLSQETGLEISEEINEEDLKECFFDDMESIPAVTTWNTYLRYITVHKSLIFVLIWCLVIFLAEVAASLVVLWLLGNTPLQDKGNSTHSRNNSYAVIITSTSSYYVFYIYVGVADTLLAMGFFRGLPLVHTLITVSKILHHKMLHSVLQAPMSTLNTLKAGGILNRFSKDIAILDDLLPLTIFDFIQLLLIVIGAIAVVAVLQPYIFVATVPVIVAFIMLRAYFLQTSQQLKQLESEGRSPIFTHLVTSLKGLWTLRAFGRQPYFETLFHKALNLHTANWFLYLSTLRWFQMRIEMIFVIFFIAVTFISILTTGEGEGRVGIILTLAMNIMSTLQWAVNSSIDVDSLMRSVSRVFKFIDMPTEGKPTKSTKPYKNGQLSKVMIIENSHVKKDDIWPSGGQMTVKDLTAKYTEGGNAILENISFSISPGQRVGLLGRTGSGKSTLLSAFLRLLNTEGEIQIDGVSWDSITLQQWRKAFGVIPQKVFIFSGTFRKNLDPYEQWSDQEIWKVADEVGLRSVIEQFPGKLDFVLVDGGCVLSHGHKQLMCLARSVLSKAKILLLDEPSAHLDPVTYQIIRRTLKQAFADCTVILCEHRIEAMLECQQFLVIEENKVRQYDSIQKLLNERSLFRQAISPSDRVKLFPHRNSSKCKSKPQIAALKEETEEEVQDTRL
# measurement.context: enteroid cells incubated with test compound 18-24 hours; acute 10 μM forskolin and 300 nM Compound III
Please respond with reported EC50 for every item in the list.

What value of EC50 has been recorded for this entry: `[2H]c1ccc2nc1NCCC[C@@H]1CN(c3nc(-n4ccc(OC([2H])([2H])C([2H])([2H])C5C6(CC6)C56CC6)n4)ccc3C(=O)NS2(=O)=O)C(C)(C)C1`
< 1 µM

Moving on to the next compound: CC1(C)C[C@@H]2CCCNc3cccc(n3)S(=O)(=O)NC(=O)c3ccc(N4CC5CCCCN5C4=O)nc3N1C2 (some centres unmarked)
> 3 µM

Moving on to the next compound: CC(C)(C)COc1ccn(-c2ccc3c(n2)N2C[C@H](CCNc4cccc(n4)S(=O)(=O)NC3=O)CC2(C)C)n1 (single isomer, unassigned) [Compound 3]
< 1 µM

Moving on to the next compound: CC1(C)C[C@H]2CCNc3cccc(n3)S(=O)(=O)NC(=O)c3ccc(-n4ccc(OCCCC5(C(F)(F)F)CC5)n4)nc3N1C2 (single isomer, unassigned) [Compound 235]
< 1 µM

Moving on to the next compound: CC1(C)CC2CCCNc3cccc(n3)S(=O)(=O)NC(=O)c3ccc(-n4ccc(OCC5C(C)(C)C5(C)C)n4)nc3N1C2 (centres unmarked)
< 1 µM

Moving on to the next compound: CC1(C)C[C@H]2CCCn3ccc(n3)S(=O)(=O)NC(=O)c3ccc(-n4ccc(OCCCC5(C(F)(F)F)CC5)n4)nc3N1C2 (single isomer, unassigned) [Compound 165]
> 3 µM

Moving on to the next compound: CC1(C)C[C@@H]2CN1c1nc(-n3ccc(OCCC4(C(F)(F)F)CC4)n3)ccc1C(=O)NS(=O)(=O)c1cccc(n1)NCCO2 (single isomer, unassigned) [Compound 75]
< 1 µM

Moving on to the next compound: CC1(C)C[C@@H]2CCCNc3cccc(n3)S(=O)(=O)NC(=O)c3ccc(N4CC[C@H](CCCC5(C(F)(F)F)CC5)C4=O)nc3N1C2 (single isomer, unassigned) [Compound 174]
< 1 µM

Moving on to the next compound: C[C@@H]1CC[C@H]2CN(c3nc(N4CCN(CCC(C)(C)C)C4=O)ccc3C(=O)NS(=O)(=O)c3cccc(n3)N1)C(C)(C)C2 (single isomer, unassigned) [Compound 218]
> 3 µM

Moving on to the next compound: CC1(C)C[C@H]2CCCn3ccc(n3)S(=O)(=O)NC(=O)c3ccc(-n4ccc(OCCC(C5CC5)C5CC5)n4)nc3N1C2 (single isomer, unassigned) [Compound 154]
< 1 µM

Moving on to the next compound: CC1(C)C[C@H]2CCCNc3cccc(n3)S(=N)(=O)NC(=O)c3ccc(-n4ccc(OCCC5(C(F)(F)F)CC5)n4)nc3N1C2 (single isomer, unassigned) [Compound 271]
< 1 µM
